Target: cyclin B/CDK1 enzyme (Homo sapiens, UniProt P06493)
Construct: purchased New England BioLabs; host or cells: Sf9 insect cells, recombinant baculovirus
Sequence (P06493 whole entry): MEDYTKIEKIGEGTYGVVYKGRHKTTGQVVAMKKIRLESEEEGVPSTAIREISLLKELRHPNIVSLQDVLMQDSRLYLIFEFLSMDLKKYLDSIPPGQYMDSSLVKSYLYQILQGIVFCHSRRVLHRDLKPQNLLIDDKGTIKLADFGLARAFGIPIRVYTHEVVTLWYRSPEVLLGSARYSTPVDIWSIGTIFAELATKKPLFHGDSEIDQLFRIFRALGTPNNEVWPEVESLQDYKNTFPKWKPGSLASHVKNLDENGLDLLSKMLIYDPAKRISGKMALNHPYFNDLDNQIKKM
Sequence (P14635 whole entry partner): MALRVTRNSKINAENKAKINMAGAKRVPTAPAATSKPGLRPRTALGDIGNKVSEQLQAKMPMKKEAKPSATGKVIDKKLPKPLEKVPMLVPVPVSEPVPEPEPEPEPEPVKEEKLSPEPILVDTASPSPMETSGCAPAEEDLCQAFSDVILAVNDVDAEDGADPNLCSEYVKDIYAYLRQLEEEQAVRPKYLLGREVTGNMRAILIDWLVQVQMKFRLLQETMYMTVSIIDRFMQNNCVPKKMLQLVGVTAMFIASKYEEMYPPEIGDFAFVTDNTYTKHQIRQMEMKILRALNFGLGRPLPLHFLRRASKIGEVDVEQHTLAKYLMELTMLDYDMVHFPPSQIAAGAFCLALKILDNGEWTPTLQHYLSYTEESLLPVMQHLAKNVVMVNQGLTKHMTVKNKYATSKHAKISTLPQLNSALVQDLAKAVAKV
Assay: CDK1 ELISA kinase assay (phospho-Rb ser 795 detection)
Type: biochemical
Details: In Vitro Enzyme Assays, read-out: CDK1 IC50
Measurement label: IC50

Compound	Data value
CN1CCN(c2ccc(N/C=C3\C(=O)NC(=O)c4ccc(-c5ccoc5)cc43)cc2)CC1	> 50 µM
CN1CCN(c2ccc(N/C=C3\C(=O)NC(=O)c4ccc(-c5ccsc5)cc43)cc2)CC1 [Example 108]	> 50 µM
COc1cc(CN/C=C2\C(=O)NC(=O)c3ccc(-c4ccc(Cl)cc4)cc32)cc(O)c1OC	47.6 µM
O=C1NC(=O)c2ccc(Br)cc2/C1=C/Nc1ccc2c(c1)CCN2	> 50 µM
CN1CCN(c2ccc(N/C=C3\C(=O)NC(=O)c4ccc(-n5cccc5)cc43)cc2F)CC1	> 50 µM

I'd like to know its IC50. The compound in question is CC(=O)N1CCC(c2ccc(N/C=C3\C(=O)NC(=O)c4ccc(-c5ccoc5)cc43)cc2)CC1
> 50 µM

Given CN1CCN(c2ccc(N/C=C3\C(=O)NC(=O)c4ccc(-c5coc(C=O)c5)cc43)nc2)CC1 , state its recorded IC50.
10 µM

So what's the measured IC50 for this one? CCCNc1ccc(CN/C=C2\C(=O)NC(=O)c3ccc(I)cc32)cc1O
31.7 µM
